B1: EEHEE_rd4_0763 (parent)
chain: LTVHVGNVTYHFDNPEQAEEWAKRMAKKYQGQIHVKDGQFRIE

# Variants of: B1
# methodNotes: folding stability dG (cDNA display proteolysis); higher = more stable
# testContext: PBS, room temperature
assayEndpoint: folding stability dG (kJ/mol)
Please state the figure in kJ/mol; there is no need to write the unit.

# example entries with known answers
F40P	4.22
Y10I	4.09

Turning now to a further variant:
[in] Using the record for `N14K` , report its folding stability dG.
[out] 6.72
